# PROTOCOL_TEXT: ATG_GLI_CIS: Attagene CIS-FACTORIAL HepG2 Assay for human Zinc Finger Protein GLI1 (AID 2282945)
# RUN_CONDITIONS: HepG2, Attagene cis-factorial reporter mRNA, GLI element; actives raise or lower the signal
Activity calls are given as the source filed them. The calls were made as follows: active = hit-call score of the fitted dose curve at least 0.9, where 1 is the maximum; inactive = score below 0.9.
Outcomes: active, inactive

[
  {
    "COMPOUND": "C/C=C\\C/C=C/CCCCCCCCOC(C)=O",
    "LABEL_VALUE": "inactive"
  },
  {
    "COMPOUND": "NNC(=O)c1cccc(C(=O)NN)c1",
    "LABEL_VALUE": "inactive"
  },
  {
    "COMPOUND": "CCN(CC#N)c1cccc(C)c1",
    "LABEL_VALUE": "inactive"
  },
  {
    "COMPOUND": "CCCCCCCCCCCSCC(=O)O",
    "LABEL_VALUE": "inactive"
  },
  {
    "COMPOUND": "Cn1c([N+](=O)[O-])cnc1COC(N)=O",
    "LABEL_VALUE": "inactive"
  },
  {
    "COMPOUND": "CCOC(=O)CC",
    "LABEL_VALUE": "inactive"
  },
  {
    "COMPOUND": "NC(=O)NNC(N)=O",
    "LABEL_VALUE": "inactive"
  },
  {
    "COMPOUND": "FC(F)(F)C(=NOCC1OCCO1)c1ccc(Cl)cc1",
    "LABEL_VALUE": "inactive"
  },
  {
    "COMPOUND": "NC(=O)N=NC(N)=O",
    "LABEL_VALUE": "inactive"
  },
  {
    "COMPOUND": "Cc1cnc(NC(=O)C2=C(O)c3ccccc3S(=O)(=O)N2C)s1",
    "LABEL_VALUE": "inactive"
  },
  {
    "COMPOUND": "CCCCOCCOC(=O)COc1nc(Cl)c(Cl)cc1Cl",
    "LABEL_VALUE": "inactive"
  },
  {
    "COMPOUND": "CCCC(=O)OCc1ccccc1",
    "LABEL_VALUE": "inactive"
  },
  {
    "COMPOUND": "CC(=O)c1ccc[nH]1",
    "LABEL_VALUE": "inactive"
  },
  {
    "COMPOUND": "O=C(O)c1ccccc1Nc1cccc(C(F)(F)F)c1",
    "LABEL_VALUE": "inactive"
  },
  {
    "COMPOUND": "O=C(c1ccccc1)C1CCC1",
    "LABEL_VALUE": "inactive"
  },
  {
    "COMPOUND": "O=C(C=Cc1ccccc1)OCc1ccccc1",
    "LABEL_VALUE": "inactive"
  },
  {
    "COMPOUND": "CCCCCCCCCCCCCCCC[N+](C)(C)CC",
    "LABEL_VALUE": "inactive"
  },
  {
    "COMPOUND": "O=S(=O)(O)CC(O)CCl (stereo unspecified)",
    "LABEL_VALUE": "inactive"
  },
  {
    "COMPOUND": "CC(C)c1ccc2c(c1)CC[C@H]1[C@](C)(CN)CCC[C@]21C",
    "LABEL_VALUE": "inactive"
  },
  {
    "COMPOUND": "CC(CC=O)c1ccccc1 (stereo unspecified)",
    "LABEL_VALUE": "inactive"
  },
  {
    "COMPOUND": "CC(C)=CC1CC(C)CCO1 (stereo unspecified)",
    "LABEL_VALUE": "inactive"
  },
  {
    "COMPOUND": "Cc1c(C)c([N+](=O)[O-])c(C(C)(C)C)c([N+](=O)[O-])c1C",
    "LABEL_VALUE": "inactive"
  },
  {
    "COMPOUND": "Oc1ccc(Cl)cc1Cc1cc(Cl)ccc1O",
    "LABEL_VALUE": "inactive"
  },
  {
    "COMPOUND": "CCCCC(CC)COCC1CO1 (stereo unspecified)",
    "LABEL_VALUE": "inactive"
  },
  {
    "COMPOUND": "CCCCC/C=C\\C/C=C\\CCCCCCCC(=O)OC",
    "LABEL_VALUE": "active"
  },
  {
    "COMPOUND": "O=CC1CC1",
    "LABEL_VALUE": "inactive"
  },
  {
    "COMPOUND": "CC(C)(C)C(=O)CCc1ccc(Cl)cc1",
    "LABEL_VALUE": "inactive"
  },
  {
    "COMPOUND": "CCOC(=O)Cc1cccc2ccccc12",
    "LABEL_VALUE": "inactive"
  },
  {
    "COMPOUND": "CCCCCCCC[N+](C)(CCCCCCCC)CCCCCCCC",
    "LABEL_VALUE": "inactive"
  },
  {
    "COMPOUND": "O=C(Nc1ccccc1)c1ccccc1O",
    "LABEL_VALUE": "inactive"
  },
  {
    "COMPOUND": "CC(=O)OC(C)C",
    "LABEL_VALUE": "inactive"
  }
]

Taken from PubChem BioAssay (EPA / NIEHS).
